The entries that follow carry Ki values tested on Orexin/Hypocretin receptor type 1 (Homo sapiens), drawn from several published reports.
Molecular target: Orexin/Hypocretin receptor type 1 (Homo sapiens)
Sequence (O43613 whole entry): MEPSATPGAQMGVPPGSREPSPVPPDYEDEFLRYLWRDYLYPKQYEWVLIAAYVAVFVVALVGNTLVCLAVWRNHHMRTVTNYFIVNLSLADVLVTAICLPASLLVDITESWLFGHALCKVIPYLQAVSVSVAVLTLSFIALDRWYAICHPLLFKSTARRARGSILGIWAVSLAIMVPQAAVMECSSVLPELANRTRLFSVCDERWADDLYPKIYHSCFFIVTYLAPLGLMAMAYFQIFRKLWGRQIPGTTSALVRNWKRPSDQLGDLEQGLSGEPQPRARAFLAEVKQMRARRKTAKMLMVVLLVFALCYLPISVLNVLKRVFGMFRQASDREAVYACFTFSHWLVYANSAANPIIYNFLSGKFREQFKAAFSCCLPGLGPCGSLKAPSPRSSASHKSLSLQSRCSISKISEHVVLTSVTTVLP

{"columns": ["smiles-text", "target-or-system", "inequality-sign", "Ki / µM"],
 "data": [
  ["COc1ccc(OC[C@@]2(c3ccccc3)C[C@H]2CNc2ccccc2)cc1OC", "Orexin/Hypocretin receptor type 1 (Homo sapiens)", "=", 4.16],
  ["COc1ccc(OC[C@@]2(c3ccccc3)C[C@H]2C(=O)Cc2ccccc2)cc1OC", "Orexin/Hypocretin receptor type 1 (Homo sapiens)", ">", 10],
  ["COC(=O)c1cccnc1N[C@@H]1CC[C@@H](C)N(C(=O)c2ccccc2-n2nccn2)C1", "Orexin/Hypocretin receptor type 1 (Homo sapiens)", "=", 0.012],
  ["C[C@@H]1CC[C@@H](Oc2cc(Cl)ccn2)CN1C(=O)c1ccccc1-n1nccn1", "Orexin/Hypocretin receptor type 1 (Homo sapiens)", "=", 0.12],
  ["CC1(C)OC[C@H](NC(=O)Nc2cccc(Br)c2)[C@H](c2ccccc2)O1", "Orexin/Hypocretin receptor type 1 (Homo sapiens)", "=", 1]
]}

====

Target: Orexin/Hypocretin receptor type 1 (Homo sapiens, UniProt O43613)
Sequence (O43613 whole entry): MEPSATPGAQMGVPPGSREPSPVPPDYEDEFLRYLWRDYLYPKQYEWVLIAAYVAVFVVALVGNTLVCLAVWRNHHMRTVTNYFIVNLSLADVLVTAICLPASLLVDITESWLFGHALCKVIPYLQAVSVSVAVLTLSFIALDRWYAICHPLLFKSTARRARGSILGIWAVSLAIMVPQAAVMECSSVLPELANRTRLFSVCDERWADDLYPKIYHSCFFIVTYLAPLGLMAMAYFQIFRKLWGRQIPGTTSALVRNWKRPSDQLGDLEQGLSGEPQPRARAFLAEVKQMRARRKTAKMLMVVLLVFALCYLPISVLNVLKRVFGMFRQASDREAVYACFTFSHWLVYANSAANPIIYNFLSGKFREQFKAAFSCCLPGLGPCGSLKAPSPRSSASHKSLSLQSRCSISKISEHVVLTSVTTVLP
pKi: −log10 of the molar value.
The entries that follow carry pKi values tested on Orexin/Hypocretin receptor type 1 (Homo sapiens, UniProt O43613), drawn from several published reports.

{"columns": ["compound", "pKi"],
 "data": [
  ["COc1ccc(C(=O)Nc2cccc([C@@]3(C)O[C@@H]4CO[C@H]5N4[C@@H]3O[C@]5(C)c3cccc(NC(=O)c4ccc(OC)cc4)c3)c2)cc1", 8.66],
  ["Cc1cc(OC2CCC(C)N(C(=O)c3ccccc3-n3nccn3)C2)c2ccccc2n1 (racemic)", 5.44],
  ["Cc1ccc(-n2nccn2)c(C(=O)N2CC[C@H]3CC[C@@H]2CN3c2ncc3ccc(F)cc3n2)c1", 6.46],
  ["Cc1cccnc1O[C@@H]1CC[C@@H](C)N(C(=O)c2ccccc2-n2nccn2)C1", 5.32],
  ["COc1ccc(N2C(=O)N(Cc3ccccc3)c3ccccc3S2(=O)=O)cc1OC", 5.70],
  ["CC1(C)OC[C@H](NC(=O)Nc2ccccc2-c2ccsc2)[C@H](c2ccccc2)O1", 5.70],
  ["C[C@@H]1CC[C@@H](Oc2cc(I)ccn2)CN1C(=O)c1ccccc1-n1nccn1", 7.23],
  ["COc1ccc(OC[C@@]2(c3ccccc3)C[C@H]2C(=O)Nc2ccccc2)cc1OC", 8.14],
  ["CC1CCC(Oc2cccc3ncccc23)CN1C(=O)c1ccccc1-n1nccn1 (racemic)", 5.99]
]}
